Assay: qHTS for Inhibitors of binding or entry into cells for Lassa Virus
Details: Lassa virus pseudotyped entry inhibition, cell-based qHTS; series mostly up to 49.2 µM
Out of some 18,000 compounds screened, about 750 (4.2%) were called active. Roughly 13% stayed inconclusive and do not appear here. The full list was thinned out, with actives kept by preference.
ENDPOINT LABEL: activity change, negative = inhibition

COMPOUND	VALUE REPORTED
O=C(NCc1ccco1)O[C@@H]1C(=O)c2cc(Br)ccc2O[C@H]1c1ccc2c(c1)OCO2	inactive
O=C(/C=C/c1cccc(F)c1)NC1CC1	inactive
Cc1csc(-c2nc3ccccc3n2C)n1	inactive
CCCc1c2oc(C(=O)O)cc(=O)c2cc2c(=O)cc(C(=O)O)n(CC)c12	inactive
CCN(CC)CCCN=C1NC(c2ccccc2)C(C(=O)OC)=C(C)N1CC (stereo not given)	9.38% [at 8.59 µM] (inactive)

Can you give me activity change, negative = inhibition for all of these, one by one?
1. C=C(CCN1C=C(C(=O)OCC)C(c2ccccc2)NC1=O)OC (stereo not given)
2. COC(=O)C12C[C@H](C)C3C(C)C(c4ccccc4C31)N2C(=O)C(F)(F)F (stereo not given in full)
3. CS(=O)(=O)c1ccc(Oc2nccc(-c3c(-c4ccc(F)cc4)ncn3C3CCNCC3)n2)cc1
4. C=CCN1C(=O)[C@]2(OCCC=C[C@H]2C)c2ccccc21
5. NS(=O)(=O)c1ccc(N=Nc2c(O)[nH]c3cccc(CCc4ccncc4)c23)cc1

Response:
1. -11% [at 8.59 µM] (inactive)
2. 4.09% [at 8.59 µM] (inactive)
3. inactive
4. -16.5% [at 8.59 µM] (inactive)
5. inactive

###

Assay: qHTS for Inhibitors of binding or entry into cells for Lassa Virus; further: potency means the concentration at half of the fitted maximal effect
Conditions: Lassa virus pseudotyped entry inhibition, cell-based qHTS; series mostly up to 49.2 µM
Hit rate of the full screen: of about 18,000 compounds, about 750 (4.2%) were called active. About 13% were inconclusive and are not listed. This excerpt belongs to a sample that is enriched for actives.
ENDPOINT LABEL: Potency

Would you please look over these solved cases?
MOLECULE	Potency
CC(=O)c1c(O)c(C)c(O)c(Cc2c(O)c3c(c(C(=O)/C=C\c4ccccc4)c2O)OC(C)(C)C=C3)c1O	15.8 µM (active)
CN(Cc1cccc2ncccc12)C(=O)c1cnn(-c2nccc(-c3ccccc3F)n2)c1C1CC1	12.6 µM (active)
O=C(Nc1cccc(C(F)(F)F)c1)c1cc(Br)cc(Br)c1O	3.98 µM (active)
CC(C)c1ccc2c(c1)c(SC(C)(C)C)c(CC(C)(C)C(=O)O)n2Cc1ccc(Cl)cc1	25.1 µM (active)

Give Potency for each of the items listed below.
1. Fc1ccc(C(OCCN2CCN(C/C=C\c3ccccc3)CC2)c2ccc(F)cc2)cc1
2. CC[C@H]1CN2CCc3cc(OC)c(OC)cc3[C@@H]2C[C@@H]1C[C@H]1NCCc2cc(OC)c(OC)cc21
3. CC[N+](C)(CC)CCC[n+]1c(-c2ccccc2)c2cc(N)ccc2c2ccc(N)cc21
4. CC(=O)Oc1c2c(c3c(c1CC=C(C)C)O[C@@]14C(=CC5CC1C(C)(C)OC4(C/C=C(\C)C(=O)O)C5=O)C3=O)OC(C)(CCC=C(C)C)C=C2 (stereo partly drawn)

Response:
["28.2 µM (active)", "0.1 µM (active)", "3.16 µM (active)", "6.31 µM (active)"]

###

Assay: qHTS for Inhibitors of binding or entry into cells for Lassa Virus; on activity change, negative = inhibition: on the % scale 0 is the no-effect control and ±100 the full control effect
Settings: Lassa virus pseudotyped entry inhibition, cell-based qHTS; series mostly up to 49.2 µM
The campaign covered roughly 18,000 compounds. About 750 (4.2%) were called active. Inconclusive results (about 13%) are left out. The entries come from a sample that favours actives as a whole.
ENDPOINT LABEL: activity change, negative = inhibition

Worked set:
MOLECULE	ENDPOINT LABEL	VALUE REPORTED
Cc1ccc(/C(=C/CN2CCCC2)c2ccccn2)cc1	activity change, negative = inhibition	inactive
O=C(Nc1ccc(C(=O)O)c(O)c1)c1ccccc1	activity change, negative = inhibition	inactive
Cc1ccc(-c2cc(=O)c3ccc(Cl)cc3[nH]2)cc1	activity change, negative = inhibition	inactive
O=Cc1c(Cl)cccc1Cl	activity change, negative = inhibition	inactive
COC1=C[C@H](C(=O)NCCNC(C)=O)[C@H](C)[C@@H](c2ccccc2)CC1=O	activity change, negative = inhibition	-0.439% [at 8.59 µM] (inactive)

Each molecule below has a recorded value; state its activity change, negative = inhibition.
1. CCN(CC)CCCC(C)Nc1ccnc2cc(Cl)ccc12 (stereo unspecified)
2. O[C@H]1CN(CC2CCCCC2)[C@@H](c2ccccc2)C[C@H]1n1cc(-c2ccc(F)cc2)nn1

Response:
1. inactive
2. inactive

I'm hoping you can list activity change, negative = inhibition for every molecule here, please.
1. C=CC1=C2C=C(C3CC3)N(CC(C)C)C=C2C(=O)C(C)(OC(=O)c2ccco2)C1=O (stereo unspecified)
2. NNc1nnc(Cc2ccncc2)c2ccccc12
3. Cc1ccc(-c2ccnc(-n3ncc(C(=O)N(C)Cc4cccc5ncccc45)c3C3CC3)n2)o1
4. CCc1cc2c(nc1CC)CCN(CCC(C)=NOC[C@@H](O)COCc1ccco1)C2

Response:
["-4.02% [at 8.59 µM] (inactive)", "inactive", "inactive", "3.34% [at 8.59 µM] (inactive)"]

###

Experiment: qHTS for Inhibitors of binding or entry into cells for Lassa Virus; on activity change, negative = inhibition: on the % scale 0 is the no-effect control and ±100 the full control effect
Conditions: Lassa virus pseudotyped entry inhibition, cell-based qHTS; series mostly up to 49.2 µM
Out of some 18,000 compounds screened, about 750 (4.2%) were called active. Inconclusive results (about 13%) are left out. Many of the other results were omitted from the sample, so actives are more common in it than they were.
ENDPOINT LABEL: activity change, negative = inhibition

As a guide, the following entries are already answered.
MOLECULE	activity change, negative = inhibition
COC1=C[C@H](C(=O)N[C@H]2CCCC[C@H]2NC(C)=O)[C@H](C)[C@@H](c2ccccc2)CC1=O	-1.51% [at 8.59 µM] (inactive)
C[C@H]1Cc2c(-c3ccccc3)nc3c(c2CO1)CN(S(=O)(=O)c1ccc(Cl)c2nonc12)CC3	-12.5% [at 8.59 µM] (inactive)
C#C[C@]1(O)CC[C@H]2[C@@H]3CCC4=CC(=O)CC[C@@H]4[C@H]3CC[C@@]21CC	inactive
Nc1nc2[nH]c(=O)c(=O)[nH]c2c(=O)[nH]1	inactive

Prompt: Can you look up the measured activity change, negative = inhibition of CC(=O)OCC(=O)[C@@]1(O)CCC2C3CCC4=CC(=O)CC[C@]4(C)C3C(=O)C[C@]21C (stereo not given in full) for me?
Response: inactive

###

Assay: qHTS for Inhibitors of binding or entry into cells for Lassa Virus; on activity change, negative = inhibition: on the % scale 0 is the no-effect control and ±100 the full control effect
Conditions: Lassa virus pseudotyped entry inhibition, cell-based qHTS; series mostly up to 49.2 µM
Out of some 18,000 compounds screened, about 750 (4.2%) were called active. Not shown: some 13% with an inconclusive outcome. Only a selection was taken, and actives are over-represented in it overall. Positions of bridges follow the written chain, without caps; N, C: chain ends. Residues, ends and D or L forms follow the SMILES beside them.
ENDPOINT LABEL: activity change, negative = inhibition

COMPOUND	VALUE REPORTED
Cc1ccc(-c2ncc(Cl)cc2-c2ccc(S(C)(=O)=O)cc2)cn1	inactive
O=C(/C=C/c1ccccc1)c1ccccc1O	inactive
C[C@@H](O)[C@@H]1NC(=O)[C@H](CCCCN)NC(=O)[C@H](Cc2c[nH]c3ccccc23)NC(=O)[C@H](Cc2ccccc2)NC(=O)[C@H](Cc2ccccc2)NC(=O)[C@H](CC(N)=O)NC(=O)[C@H](CCCCN)NC(=O)[C@@H](NC(=O)[C@@H]2CCCN2)CSSC[C@@H](C(=O)N[C@@H](CCCCN)C(=O)O)NC(=O)[C@H](CO)NC(=O)[C@H](CO)NC(=O)[C@H](Cc2ccccc2)NC1=O (H-PCKNFFWKTFSSCK-OH; disulfide 2-13)	inactive
CC(=O)OCC(COC(C)=O)OC(C)=O	inactive

###

Experiment: qHTS for Inhibitors of binding or entry into cells for Lassa Virus; on activity change, negative = inhibition: on the % scale 0 is the no-effect control and ±100 the full control effect
Conditions: Lassa virus pseudotyped entry inhibition, cell-based qHTS; series mostly up to 49.2 µM
Among all 18,000 compounds or so, about 750 (4.2%) were called active. Inconclusive results (about 13%) are left out. Only a selection was taken, and actives are over-represented in it overall.
ENDPOINT LABEL: activity change, negative = inhibition

COMPOUND	activity change, negative = inhibition
Cc1csc(-c2coc3cc(O[C@@H]4O[C@H](CO)[C@@H](O)[C@@H](O)[C@H]4O)ccc3c2=O)n1	inactive
CCCN(C/C=C/I)C1CCc2ccc(O)cc2C1 (stereo not given)	inactive
O=C1C(c2ccccn2)=[N+]([O-])c2ccccc21	inactive
COc1ccc([C@@H](NC(=O)C(F)(F)F)C2CCCC=C2c2ccccc2)cc1OC (stereo not given in full)	-11.1% [at 8.59 µM] (inactive)
CNc1ncnc2ccc(-c3cccc(NS(C)(=O)=O)c3)cc12	inactive
CCCCCCCCCCCC(=O)O[C@H](CC(=O)O)C[N+](C)(C)C	inactive
C/C(Nc1ccc2oc(=O)ccc2c1)=C1/C(=O)CC2[C@@H]1C2(C)C (stereo not given in full)	inactive
O=C1C2=C(C(=O)c3ccccc31)[C@H]1O[C@](CCCCN3C(=O)c4ccccc4C3=O)(Cc3c1ccc1ccccc31)O2	10.1% [at 8.59 µM] (inactive)
C=CC1=C2C=C(C3CC3)N(C(CO)CO)C=C2C(=O)C(C)(OC(=O)c2ccco2)C1=O (stereo not given)	4.32% [at 8.59 µM] (inactive)
C[C@@H]1O[C@@H](OC[C@H]2O[C@@H](Oc3cc(O)c4c(c3)O[C@H](c3ccc(O)c(O)c3)CC4=O)[C@H](O)[C@@H](O)[C@@H]2O)[C@H](O)[C@H](O)[C@H]1O	inactive

Batch request: activity change, negative = inhibition per item, same order as input.
1. C#CCN([C@@H](C)C(=O)OCC)S(=O)(=O)c1ccc(Br)cc1F
2. O=C1OCCN1C(=O)[C@H]1[C@H](c2ccc(F)cc2)C(c2ccccc2)=NN1c1ccc(Br)cc1

Response:
1. inactive
2. inactive
